Assay: Solubility in aqueous solutions (Table 3)
Type: physicochemical
Conditions: aqueous solution, pH 5.7, aqueous buffer

molecule	solubility [µg/mL]
CC(=O)c1ccc2c(c1)[C@H](NC(=O)c1ccc(F)c(Cl)c1)[C@H](OC(=O)CCCN1CCOCC1)C(C)(C)O2.Cl [Example 17]	1000

###

Test: Solubility in aqueous solutions (Table 3)
Format: physicochemical
Settings: aqueous solution, pH 8.8, aqueous buffer

compound	solubility
CC(=O)c1ccc2c(c1)[C@H](NC(=O)c1ccc(F)c(Cl)c1)[C@H](OC(=O)NCC(=O)O)C(C)(C)O2 [Example 7]	< 1 mg/mL

###

Test: Solubility in aqueous solutions (Table 3)
Format: physicochemical
Conditions: aqueous solution, pH 5.5, aqueous buffer
measurement.label: solubility

compound	result
CC(=O)c1ccc2c(c1)[C@H](NC(=O)c1ccc(F)c(Cl)c1)[C@H](OC(=O)CNC(=O)[C@@H](N)C(C)C)C(C)(C)O2.Cl [Example 14]	> 10000 µg/mL

###

Test: Solubility in aqueous solutions (Table 3)
Type: physicochemical
Conditions: aqueous solution, pH 5.3, aqueous buffer
measurement.label: solubility

item.smiles	measurement.label	result
CC(=O)c1ccc2c(c1)[C@H](NC(=O)c1ccc(F)c(Cl)c1)[C@H](OC(=O)[C@H](C)N(C)C(=O)[C@@H](N)C(C)C)C(C)(C)O2.Cl	solubility	> 10 mg/mL

###

Test: Solubility in aqueous solutions (Table 3)
Format: physicochemical
Details: aqueous solution, pH 4.5, aqueous buffer

item.smiles	solubility
CC(=O)c1ccc2c(c1)[C@H](NC(=O)c1ccc(F)c(Cl)c1)[C@H](OC(=O)[C@@H](NC(=O)[C@@H](N)C(C)C)C(C)C)C(C)(C)O2.Cl	> 10000 µg/mL

###

Assay: Pharmacokinetics: exposure of tonabersat in plasma after oral or intravenous dosing of prodrugs to rats
Type: in vivo
Conditions: fasted male Sprague Dawley rats, compared to equimolar amount of tonabersat (5.00 mg/kg oral dosing)
measurement.label: % exposure of tonabersat after dosing the prodrugs of the invention via: Oral dosing (po)

item.smiles	result
CC(=O)c1ccc2c(c1)[C@H](NC(=O)c1ccc(F)c(Cl)c1)[C@H](OC(=O)OC[C@H](N)C(=O)O)C(C)(C)O2.Cl	39%
CC(=O)c1ccc2c(c1)[C@H](NC(=O)c1ccc(F)c(Cl)c1)[C@H](OC(=O)N[C@H](C(=O)O)C(C)C)C(C)(C)O2	<LLOQ
CC(=O)c1ccc2c(c1)[C@H](NC(=O)c1ccc(F)c(Cl)c1)[C@H](OC(=O)N[C@@H](CCCCN)C(=O)O)C(C)(C)O2.Cl	<LLOQ
CC(=O)c1ccc2c(c1)[C@H](NC(=O)c1ccc(F)c(Cl)c1)[C@H](OC(=O)N1CCC(N3CCCCC3)CC1)C(C)(C)O2.Cl	<LLOQ

###

Below, each entry is listed alongside its reported inhibition at 11 µM.
Molecular target: hERG K+ channel (Homo sapiens, UniProt Q12809)
Construct: a Chinese Hamster Lung cell line stably expressing the full length hERG channel; expressed in transfected cells; host or cells: Chinese Hamster Lung cell line
Sequence (Q12809 whole entry): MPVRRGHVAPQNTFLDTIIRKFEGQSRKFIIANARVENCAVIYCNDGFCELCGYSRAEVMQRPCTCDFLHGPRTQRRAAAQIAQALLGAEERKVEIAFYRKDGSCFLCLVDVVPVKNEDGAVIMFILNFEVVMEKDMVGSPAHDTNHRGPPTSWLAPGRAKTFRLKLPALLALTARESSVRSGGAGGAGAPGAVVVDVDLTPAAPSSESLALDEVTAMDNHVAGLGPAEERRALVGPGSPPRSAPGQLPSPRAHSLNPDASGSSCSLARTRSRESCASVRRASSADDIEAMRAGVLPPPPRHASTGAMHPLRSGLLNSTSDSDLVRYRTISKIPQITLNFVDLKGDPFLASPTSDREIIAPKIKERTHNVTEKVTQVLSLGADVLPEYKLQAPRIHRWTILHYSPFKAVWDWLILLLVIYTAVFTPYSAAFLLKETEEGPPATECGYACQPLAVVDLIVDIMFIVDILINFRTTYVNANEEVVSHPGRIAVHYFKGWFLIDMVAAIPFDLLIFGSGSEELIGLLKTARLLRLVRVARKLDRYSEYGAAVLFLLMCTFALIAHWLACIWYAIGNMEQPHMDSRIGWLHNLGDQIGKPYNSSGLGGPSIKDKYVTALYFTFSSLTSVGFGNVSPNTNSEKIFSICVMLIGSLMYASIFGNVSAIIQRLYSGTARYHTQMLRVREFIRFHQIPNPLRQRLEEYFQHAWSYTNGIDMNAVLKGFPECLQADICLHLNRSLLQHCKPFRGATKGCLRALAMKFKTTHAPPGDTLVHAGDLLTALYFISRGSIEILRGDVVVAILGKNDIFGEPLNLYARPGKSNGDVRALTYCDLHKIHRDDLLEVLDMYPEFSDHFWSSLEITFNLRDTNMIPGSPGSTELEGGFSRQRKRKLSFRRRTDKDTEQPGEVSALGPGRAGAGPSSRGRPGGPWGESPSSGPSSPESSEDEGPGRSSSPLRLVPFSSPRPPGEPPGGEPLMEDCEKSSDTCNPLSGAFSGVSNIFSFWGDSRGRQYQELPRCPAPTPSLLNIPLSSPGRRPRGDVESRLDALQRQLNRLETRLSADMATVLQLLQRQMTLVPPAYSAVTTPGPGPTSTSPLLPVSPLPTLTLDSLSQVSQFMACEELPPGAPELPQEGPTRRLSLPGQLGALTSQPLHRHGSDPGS
Assay: hERG assay, IonWorks patch clamp electrophysiology
Type: cell-based
Settings: human, pH 7.3; 11 uM; Chinese Hamster Lung cell line stably expressing hERG
measurement.label: inhibition at 11 µM (%)

compound	measurement.label	unit.tag	quantitative.result
CC(=O)c1ccc2c(c1)[C@H](NC(=O)c1ccc(F)c(Cl)c1)[C@H](OC(=O)CNC(=O)[C@@H]1CCCN1)C(C)(C)O2	inhibition at 11 µM	%	32
CC(=O)c1ccc2c(c1)[C@H](NC(=O)c1ccc(F)c(Cl)c1)[C@H](OC(=O)N1CCC(N3CCCCC3)CC1)C(C)(C)O2.Cl [Example 18, hydrochloride]	inhibition at 11 µM	%	28
CC(=O)c1ccc2c(c1)[C@H](NC(=O)c1ccc(F)c(Cl)c1)[C@H](OC(=O)OCCN(C)C)C(C)(C)O2	inhibition at 11 µM	%	25
CC(=O)c1ccc2c(c1)[C@H](NC(=O)c1ccc(F)c(Cl)c1)[C@H](OC(=O)CNC(=O)CN)C(C)(C)O2.Cl [Example 12, hydrochloride]	inhibition at 11 µM	%	43
CC(=O)c1ccc2c(c1)[C@H](NC(=O)c1ccc(F)c(Cl)c1)[C@H](OC(=O)CNC(=O)[C@@H](N)CC(C)C)C(C)(C)O2.Cl [Example 11, hydrochloride]	inhibition at 11 µM	%	34
CC(=O)c1ccc2c(c1)[C@H](NC(=O)c1ccc(F)c(Cl)c1)[C@H](OC(=O)N[C@@H](CCCCN)C(=O)O)C(C)(C)O2.Cl [Example 9, hydrochloride]	inhibition at 11 µM	%	8
CC(=O)c1ccc2c(c1)[C@H](NC(=O)c1ccc(F)c(Cl)c1)[C@H](OC(=O)CCCN1CCOCC1)C(C)(C)O2.Cl [Example 17, hydrochloride]	inhibition at 11 µM	%	27
CC(=O)c1ccc2c(c1)[C@H](NC(=O)c1ccc(F)c(Cl)c1)[C@H](OC(=O)[C@@H](NC(=O)[C@@H](N)C(C)C)C(C)C)C(C)(C)O2.Cl [Example 15, hydrochloride]	inhibition at 11 µM	%	21
CC[C@H](C)[C@H](N)C(=O)NCC(=O)O[C@H]1[C@@H](NC(=O)c2ccc(F)c(Cl)c2)c2cc(C(C)=O)ccc2OC1(C)C.Cl [Example 13, hydrochloride]	inhibition at 11 µM	%	2
CC(=O)c1ccc2c(c1)[C@H](NC(=O)c1ccc(F)c(Cl)c1)[C@H](OC(=O)CNC(=O)[C@@H](N)C(C)C)C(C)(C)O2.Cl [Example 14, hydrochloride]	inhibition at 11 µM	%	14
CCN(CC)CCOC(=O)O[C@H]1[C@@H](NC(=O)c2ccc(F)c(Cl)c2)c2cc(C(C)=O)ccc2OC1(C)C	inhibition at 11 µM	%	20
